assay: Firefly Luciferase Counterscreen for Inhibitors of ATXN expression; conditions: luminescence; series mostly up to 57.5 µM
In all, about 1,400 compounds went through this assay and about 30 (2%) were called active. Inconclusive results (about 15%) are left out. The call rests on the fitted dose curve; in most records, active means well fitted inhibition curve with a large enough effect; inconclusive means small, poorly fitted or top-dose-only effect; inactive means flat fitted curve, though single readings scatter. What follows is part of a selection rich in actives, with near analogues and random picks from the rest.
Please answer using one outcome listed in active, inactive

COc1ccccc1-c1cc(NC=O)c2ncc(-c3ccc(F)cc3)n2c1
inactive
CN1CCC(NC(=O)c2cc(-c3cccc(Br)c3)nc3ccccc23)CC1
inactive
COc1cccc2c1C1COC3C4CC(C(=O)O)C(C(C2)N13)N4C (stereo not given)
inactive
CC[C@H]1CN2CCc3cc(OC)c(OC)cc3C2C[C@@H]1C[C@H]1NCCc2cc(OC)c(OC)cc21 (stereo not given in full)
inactive
COc1ccc(-c2cnc3c(NC=O)cc(-c4ccccc4OC)cn23)cc1OC
inactive
Cc1ccc(N=Nc2ccc(O)c3ncccc23)cc1
inactive
CN1CCN(c2ccc(-c3cc(NC=O)c4ncc(-c5ccc(F)c(Cl)c5)n4c3)cc2)CC1
active
COc1cccc(/C=N/NC(=O)c2c(C)nc3ccc(Cl)cn23)c1O
inactive
Cc1cccc(NC(=O)c2cc(-c3ccccn3)nc3ccccc23)c1C
inactive

// switching to the query molecule
Challenge: Can you look up the reported call for CCOc1ccc(-n2c(-c3ccccc3)c[n+]3c2CCCCC3)cc1 for me?
Response given: inactive

----------
assay: Firefly Luciferase Counterscreen for Inhibitors of ATXN expression; conditions: luminescence; series mostly up to 57.5 µM
About 30 (2%) of roughly 1,400 compounds were called active. About 15% were inconclusive and are not listed. Calls follow the shape of the dose curve; as a rule, active = well fitted inhibition curve with a large enough effect; inconclusive = small, poorly fitted or top-dose-only effect; inactive = flat fitted curve, though single readings scatter. What follows is part of a selection rich in actives, with near analogues and random picks from the rest.
Please answer using one outcome listed in True for active, False for inactive

Take a look at these entries with their results.
COc1ccc2oc(/C=C/N(C)C)c(C(=O)c3ccc(Cl)cc3)c2c1
False
O=[N+]([O-])c1cc(Cl)c(O)c2ncccc12
False
Cc1ccc(C(NC(=O)C2CCN(Cc3ccc(Cl)c(Cl)c3)CC2)c2ccccn2)cc1 (configuration not stated)
False
COc1cc(C(=O)NC(=S)NNC(=O)c2cnccn2)cc(OC)c1OC
False
CC(Oc1ccc(F)cc1)C(=O)Nc1nc(-c2ccccn2)cs1 (configuration not stated)
False

Challenge: Can you look up the reported call for COc1ccc(S(=O)(=O)Nc2ccc(F)cc2)cc1N(C)S(=O)(=O)c1ccc(Cl)cc1 for me?
Response given: False

Challenge: Can you look up the reported call for COc1ccc(C(=O)c2sc(Nc3ccccc3)nc2N)cc1OC for me?
Response given: False

Challenge: Can you look up the reported call for COCCCNCCCOc1ccc(Cl)cc1C(C)(C)C for me?
Response given: False

----------
experiment: Firefly Luciferase Counterscreen for Inhibitors of ATXN expression; details: luminescence; series mostly up to 57.5 µM
In all, about 1,400 compounds went through this assay and about 30 (2%) were called active. Inconclusive results (about 15%) are left out. The call rests on the fitted dose curve; in most records, active means well fitted inhibition curve with a large enough effect; inconclusive means small, poorly fitted or top-dose-only effect; inactive means flat fitted curve, though single readings scatter. Shown is part of a subset that was picked to be rich in actives.
Please answer using one outcome listed in 1 (active), 0 (inactive)

Take a look at these entries with their results.
O=C(Nc1nc(-c2ccccc2)cs1)c1ccccc1NS(=O)(=O)c1ccc(F)cc1
1
S=C(Nc1cc(Cl)ccc1Oc1ccccc1)N1CCN(c2ccccn2)CC1
0
Cc1cc(C(=O)N/N=C/c2cc(Br)cc(Br)c2OC(=O)c2cccc(F)c2)n[nH]1
0
CN(C)CCNc1ccc(CO)c2sc3ccc(O)cc3c(=O)c12
0
CN1CCC(N(C)S(=O)(=O)c2ccc(NC(=O)COc3ccc(Br)cc3Cl)cc2)CC1
0
Cc1cc(C)nc(N/N=C2/CCCC/C2=C\c2ccccc2)n1
0
Cc1nc2c(OCc3ccc(C(F)(F)F)cc3)cccn2c1N(C)C(=O)CCC1CCCC1
0
NC(Cc1ccc(F)cc1)c1csc(NC(=O)NC(c2ccccc2)c2ccccc2)n1 (stereo not given)
0

Challenge: Can you look up the reported call for CC(=O)Oc1ccc(C23c4ccccc4C2(OC(C)=O)c2cc(OC(C)=O)ccc23)cc1 (stereo not given) for me?
Response given: 0

Challenge: Can you look up the reported call for O=S(=O)(c1ccc(F)cc1)c1snnc1-c1ccccc1 for me?
Response given: 0

Reference for the values: PubChem BioAssay AID1745846
